Test: MTT cell viability assay
Format: cell-based, human
Settings: human, HepG2 cells, 6 h, read-out: IC50 cytotoxicity
Quantity Kind: IC50 at 6 h (µg/mL)
Express it in µg/mL; write the number only.

[ask] I have this compound here, CON=C(C(=O)NC1C(=O)N2C(C(=O)O)=C(COC(C)=O)CSC12)c1csc(NC(=O)CC(C(=O)OC)N2CCN(CC(=O)O)CCN(CC(=O)O)CC2)n1 (stereo in doubt) , and I need its recorded IC50 at 6 h.
[reply] 62

----------
Experiment: Plasma drug concentrations in the in vivo efficacy study
Conditions: male, mouse, 4 h, 100 mg/kg IP every two hours, infected BALB/c mice
Quantity Kind: concentration at 4 h (ng/mL)
Express it in ng/mL; write the number only.

>>> numeric_value("CON=C(C(=O)NC1C(=O)N2C(C(=O)O)=C(COC(C)=O)CSC12)c1csc(NC(=O)CC(C(=O)OC)N2CCN(CC(=O)O)CCN(CC(=O)O)CC2)n1 (stereo in doubt)")
6970

Let's switch to this molecule now.
[ask] I have this molecule here, `C[C@@H](O)[C@H]1C(=O)N2C(C(=O)O)=C(S[C@@H]3CN[C@H](C(=O)N(C)C)C3)[C@H](C)[C@H]12` , and I need its recorded concentration at 4 h.
[reply] 27500
